# SYSTEM_NAME: T1, KDR-alkaline phosphatase (AP) soluble fusion protein (human, UniProt P35968 20-764)
# T1 construct: Expressed in NIH 3T3 cells as in Lu et al. 2000; also called KDR-AP; full length KDR-AP; not shown: alkaline phosphatase (AP) fusion partner
# EXPERIMENTAL_PROTOCOL: BIAcore SPR, KDR immobilized
VALUE_KIND: pKd
Give only the number. pKd is defined as minus log10 of concentration in molar units.

Incoming: Requested read-out: pKd. Entry: Hu-1121 Fab (Fab, V domains shown, see also CLM-00007) with new light chains) VH: EVQLVQSGGGLVKPGGSLRLSCAASGFTFSSYSMNWVRQAPGKGLEWVSSISSSSSYIYYADSVKGRFTISRDNAKNSLYLQMNSLRAEDTAVYYCARVTDAFDIWGQGTMVTVSS VL: DIQMTQSPSSVSASIGDRVTITCRASQGIDNWLGWYQQKPGKAPKLLIYDASNLDTGVPSRFSGSGSGTYFTLTISSLQAEDFAVYFCQQAKAFPPTFGGGTKVDIK
Outgoing: 9.96

Incoming: Requested read-out: pKd. Entry: D2C6 Fab (Fab, V domains shown, Soluble human Fab from E. coli HB2151; also called Hu-2C6 Fab; Hu-2C6) VH: EVQLVQSGGGLVKPGGSLRLSCAASGFTFSSYSMNWVRQAPGKGLEWVSSISSSSSYIYYADSVKGRFTISRDNAKNSLYLQMNSLRAEDTAVYYCARVTDAFDIWGQGTMVTVSS VL: EIVMTQSPATLSLSPGERATLSCRASQSVSSYLAWYQQKPGQAPRLLIYDSSNRATGIPARFSGSGSGTDFTLTISSLEPEDFATYYCLQHNTFPPTFGQGTKVEIK
Outgoing: 8.44

We now examine a further binder.
Incoming: Requested read-out: pKd. Entry: IMC-2C6 IgG (antibody, V domains shown) VH: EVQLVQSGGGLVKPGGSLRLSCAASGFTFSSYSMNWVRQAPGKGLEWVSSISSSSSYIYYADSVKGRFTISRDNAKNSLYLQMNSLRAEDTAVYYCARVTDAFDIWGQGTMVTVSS VL: EIVMTQSPATLSLSPGERATLSCRASQSVSSYLAWYQQKPGQAPRLLIYDSSNRATGIPARFSGSGSGTDFTLTISSLEPEDFATYYCLQHNTFPPTFGQGTKVEIK
Outgoing: 9.70
